Examples of compounds with documented BRET2, % of inhibition, Selenite follow.
system under test: rVDAC1-GFP2 / rVDAC1-Rluc in T-REx-293 cells (Rattus norvegicus, UniProt Q9Z2L0)
Construct: The rVDAC1 gene was cloned into BamHI and HindIII sites of the BRET2 plasmids (N2 variants); expressed in transfected cells; host or cells: T-REx-293 cells stably expressing hVDAC1-shRNA (T-REx-pS10)
Sequence (Q9Z2L0 with tags, fused parts or gaps limits assumed): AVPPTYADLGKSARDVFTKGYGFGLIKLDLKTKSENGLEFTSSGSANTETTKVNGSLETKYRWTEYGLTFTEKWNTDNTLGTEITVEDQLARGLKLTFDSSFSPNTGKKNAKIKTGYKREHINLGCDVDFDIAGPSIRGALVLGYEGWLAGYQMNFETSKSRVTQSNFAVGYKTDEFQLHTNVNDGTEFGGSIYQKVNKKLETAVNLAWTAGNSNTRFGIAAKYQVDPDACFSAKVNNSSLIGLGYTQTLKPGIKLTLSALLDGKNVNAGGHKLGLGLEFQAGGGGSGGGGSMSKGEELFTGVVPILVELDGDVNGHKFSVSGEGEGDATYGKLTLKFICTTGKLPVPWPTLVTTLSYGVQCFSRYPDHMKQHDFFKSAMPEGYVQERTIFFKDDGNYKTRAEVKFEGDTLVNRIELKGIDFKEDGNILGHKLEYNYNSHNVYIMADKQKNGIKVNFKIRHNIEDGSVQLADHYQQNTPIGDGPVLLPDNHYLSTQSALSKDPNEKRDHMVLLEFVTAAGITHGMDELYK
protocol description: BRET2 assay of VDAC1 oligomerization induced by apoptosis inducers (Method A)
Type: cell-based
condition label: test compound 10 μM, 1 h pre-incubation, selenite 30 μM (3 h)
Protocol: BRET2 screening may be carried out as described in the art ([…] et al., (2010) Oligomerization of the mitochondrial protein voltage-dependent anion channel is coupled to the induction of apoptosis. Mol Cell Biol 30, 5698-5709). […] The BRET2 signal represents the ratio of the GFP2 fluorescence, measured at its emission wavelength (510 nm), over the light intensity (luminescence) emitted at 395 nm. All measurements were performed using the Infinite 200 ELISA reader (Tecan). […]
# unit: % | format: bare number

Given the entry COc1ccc(/C=C2/CCOC2=O)cc1 , report its measured BRET2, % of inhibition, Selenite.
75.7

Now give it for O=C(Oc1ccc(NC(=O)c2cc3c(cc2Br)OCO3)cc1)c1ccccc1 too.
69.4

How about this compound: O=C1CN2CCC1C/C2=C\c1ccnc2c(Cl)cccc12 (stereo not shown)
41.4

Again, but for O=C(O)c1cccc2c1C(=O)c1cccc3snc-2c13
18.8

For O=[N+]([O-])c1cccc(/C=C/c2ccccn2)c1 then?
61.8

Same question, Nc1nc(Nc2ccccc2)n[nH]1 this time
28.3

Subsequent entry: Nc1ncnc2c1cnn2C1CCCCC1
62

// next record Cc1ccc(-n2nnnc2-c2cccnc2)cc1
52.1

Thanks! And CC(C)OC(=O)Nc1ccc(-c2ccc(NC(=O)OC(C)C)cc2Cl)c(Cl)c1 ?
78.3

Here is the next compound: CCCOc1nc2c(c(=O)n(C)c(=O)n2C)n1C
20.1

Okay, and c1ccc2c(c1)[nH]c1c3ccccc3sc21 ?
16

And for CCN1CCc2ccccc2C1 ?
48.3

Input O=C(Nc1ccc(Nc2ccncc2)cc1)c1ccc(Nc2ccnc3ccc([N+](=O)[O-])cc23)cc1
68.1

Consider next the compound S=c1nc[nH]c2c1ncn2C1CCCC1 in the same way.
68.6

Moving on to the next compound: O=C(O)c1ccccc1C(=O)Nc1ccccc1[N+](=O)[O-]
0

Same read-out for O=C(Nc1ccc(Cl)c([N+](=O)[O-])c1)Nc1nc2ccccc2s1 ?
22.4
